system: Escherichia coli; experiment: minimum inhibitory concentration (MIC); conditions: isolate (source animal id): 13
This listing pairs compounds with measured minimum inhibitory concentration.

>  <compound>
CCCN1C[C@H](C)[C@@H](O)[C@](C)(O)[C@@H](CC)OC(=O)[C@H](C)[C@@H](O[C@H]2C[C@@](C)(OC)[C@@H](O)[C@H](C)O2)[C@H](C)[C@@H](O[C@@H]2O[C@H](C)C[C@H](N(C)C)[C@H]2O)[C@](C)(O)C[C@H]1C [Gamithromycin]

>  <minimum inhibitory concentration>
8 µg/mL

$$$$
>  <compound>
CN1C[C@@H]2C[C@H]1CN2c1cc2c(cc1F)c(=O)c(C(=O)O)cn2C1CC1 [Danofloxacin]

>  <minimum inhibitory concentration>
≤ 0.12 µg/mL

$$$$
>  <compound>
CS(=O)(=O)c1ccc([C@@H](O)[C@@H](CF)NC(=O)C(Cl)Cl)cc1 [Florfenicol]

>  <minimum inhibitory concentration>
8 µg/mL

$$$$
>  <compound>
COc1cc(NS(=O)(=O)c2ccc(N)cc2)nc(OC)n1 [sulfadimethoxine]

>  <minimum inhibitory concentration>
≤ 256 µg/mL

$$$$

The values you see were collected from the supplement of paper PMC8612539.
